# Assay Explanation: yeast display, Sf9 membrane polyspecificity reagent, FACS + sequencing; frameworks hold sequencing errors
Readout Type: polyreactivity (PSR sort gate)

In the examples that follow, each entry is paired with its recorded polyreactivity (PSR sort gate).
>  <Ordered Residues>
QVQLVESGGGLVQAGGSLRLSCDASGIIFTFYTMGWYRQAPGKERELVAAITWSGGSTNYADSVKGRFTISRDNAKNTVYLQMNSLKPEDTAVYYCAAQGYPQSPPWEDYWGQGTQVTVSS

>  <polyreactivity (PSR sort gate)>
low polyreactivity

$$$$
>  <Ordered Residues>
QVQLEESGGGLVQAGGSLRLSCAASGSTFVYNALGWNRQAPGKEREFVAVINWSGGRTYADSVKGRFTISRDNAKTTVYLQMNSLNPDETEVYYCNAERRSYRFALQYRRYDYWGEGTQVTVSS

>  <polyreactivity (PSR sort gate)>
high polyreactivity

$$$$
>  <Ordered Residues>
QVQLVESGGGLVQAGGSLRLSCAASGSIFVYNAMGWYRQAPGKERELVAGITFIGGSTYYADSVKGRFTISRDTAKNTVYLPMNSLKPEDTAVYYRNADGAPGIFYGYDSWGQGTQVTVSS

>  <polyreactivity (PSR sort gate)>
low polyreactivity

$$$$
>  <Ordered Residues>
QVQLVESGGDLVQAGGSLRLSCAASGYTFIVKAMGWYRQAPGKERELVAGISYRGGRTFYADSVKGRFTISRDNAKNNVYLQMNSLKPEDTAVYYCAARKTGIPFYNYDYWGQGTQVTVSS

>  <polyreactivity (PSR sort gate)>
low polyreactivity

$$$$

Proceeding to the next sequence to report its polyreactivity (PSR sort gate).
Challenge: Using known records, supply polyreactivity (PSR sort gate) for "QVQLVESGGGLVQAGGSLRLSCAASGTIIYLNAMAWYRQAPGKERELVAAITSGGSTYYADSVKGRFTISRDNAKNTVYVQMNSLKPEDTAVYYCAAFVWSGWGHWFYFWGQGTQVTVSS"
Response given: high polyreactivity
